Just for reference, PubChem BioAssay (NCI) is where these values come from.

System: HCT-15 colon
PROTOCOL_DESCRIPTION: NCI-60 one-dose screen, 48 h (100 = growth as untreated, 0 = no growth, -100 = all killed)
CONDITION_INFO: 10 µM unless noted
This is part of a sample that, as a whole, favours compounds with a hit. Of some 83,000 tested, about 20% had one in any assay.
Documented growth across a set of molecules
Give a bare numeral; the unit % is implied.

>>> recorded_measurement("Cc1nnc(-c2cc3c(ccc4ccccc43)oc2=O)c2cn(-c3ccc(Cl)cc3)nc12")
87.4
>>> recorded_measurement("COc1cc(-c2nn(-c3ccc(NC(=O)c4ccc(Cl)c(Cl)c4)cc3)cc2-c2ccncc2)ccc1Cl")
10.9
>>> recorded_measurement("CCOC(=O)NC1=NCC(C)(C)S1")
104
>>> recorded_measurement("CCC(C)CC(N)O (centres undefined)")
103
>>> recorded_measurement("CC1=C(C)C[C@]2(C(=O)O[C@H]3CCCC[C@@H]32)[S@](=O)C1")
112

Problem: Recall the recorded growth for `Cc1ccccc1-n1c(C)nc2cc(NC(=O)c3ccc(Cl)cc3)ccc2c1=O` with HCT-15 colon and state it.
Result: 63.7

Problem: Recall the recorded growth for Cc1ccc(C(=O)C(Br)C(Br)c2ccccc2)cc1 (centres undefined) with HCT-15 colon and state it.
Result: 80.3

Problem: Recall the recorded growth for `Oc1ccccc1/C=N/N=C\c1ccccc1Cl` with HCT-15 colon and state it.
Result: 95.5

Problem: Recall the recorded growth for `O=C(C(=O)N1CCOCC1)c1ccc(O[C@H]2O[C@H](CO)[C@@H](O)[C@H](O)[C@@H]2O)cc1` with HCT-15 colon and state it.
Result: 97.4

Problem: Recall the recorded growth for `Clc1ccc(I)c2ccccc12` with HCT-15 colon and state it.
Result: 96.4

Problem: Recall the recorded growth for `CC1=C(C)C(=O)C(C(C)C2=C(C)C(=O)C(C)=C(C)C2=O)=C(C)C1=O` with HCT-15 colon and state it.
Result: 99.7

Problem: Recall the recorded growth for `Cc1ccc(NC(=O)CCl)cc1Cl` with HCT-15 colon and state it.
Result: 80.9

Problem: Recall the recorded growth for `CC(C)CCCCCOC(=O)c1ccccc1SSc1ccccc1C(=O)OCCCCCC(C)C` with HCT-15 colon and state it.
Result: 104

Problem: Recall the recorded growth for CCOC(=O)C1=C(c2ccccc2)NC(=O)NC1CN1C(=O)c2ccccc2C1=O (centres undefined) with HCT-15 colon and state it.
Result: 115
